Recorded values, source PubChem BioAssay AID1671190.

tgt: Polyunsaturated fatty acid lipoxygenase ALOX12 (Homo sapiens) (UniProt P18054)
Sequence (P18054 whole entry, looked up): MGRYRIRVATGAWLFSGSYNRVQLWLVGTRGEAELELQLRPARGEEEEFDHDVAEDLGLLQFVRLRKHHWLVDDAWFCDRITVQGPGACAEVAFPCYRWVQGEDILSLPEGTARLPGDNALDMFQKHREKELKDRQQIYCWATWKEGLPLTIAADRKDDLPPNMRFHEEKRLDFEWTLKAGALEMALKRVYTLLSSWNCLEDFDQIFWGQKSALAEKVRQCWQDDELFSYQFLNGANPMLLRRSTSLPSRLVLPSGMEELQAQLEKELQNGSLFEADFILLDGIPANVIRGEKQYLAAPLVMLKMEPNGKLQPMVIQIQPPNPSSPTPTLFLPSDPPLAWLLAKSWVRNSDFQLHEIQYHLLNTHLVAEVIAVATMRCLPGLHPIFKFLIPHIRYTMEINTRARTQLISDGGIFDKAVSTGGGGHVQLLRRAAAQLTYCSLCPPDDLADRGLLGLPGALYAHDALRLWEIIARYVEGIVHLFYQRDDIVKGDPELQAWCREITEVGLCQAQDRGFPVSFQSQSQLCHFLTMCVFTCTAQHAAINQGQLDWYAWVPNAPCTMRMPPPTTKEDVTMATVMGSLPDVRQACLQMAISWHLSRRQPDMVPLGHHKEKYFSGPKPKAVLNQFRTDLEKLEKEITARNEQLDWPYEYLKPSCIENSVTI
protocol_summary: Primary qHTS assay for inhibitors of human arachidonate 12S-lipoxygenase (ALOX12): Round 2
assay_context: purified 12hLO, xylenol orange hydroperoxide absorbance; series mostly up to 108 µM
Hit rate of the full screen: of about 580,000 compounds, about 6,100 (1.1%) were called active. Not shown: some 15% with an inconclusive outcome. The call rests on the fitted dose curve; in most records, active means well fitted inhibition curve with a large enough effect; inconclusive means small, poorly fitted or top-dose-only effect, or another doubt; inactive means no such curve, though single readings can be large or run the other way. The entries come from a sample that favours actives as a whole.
Possible outcomes: True (active), False (inactive)

| compound | tgt | assigned_class |
| --- | --- | --- |
| CCOc1ccc2[nH]c(=S)sc2c1 | Polyunsaturated fatty acid lipoxygenase ALOX12 (Homo sapiens) (UniProt P18054) | True |
| C=CCNCc1ccc(Cl)c(Cl)c1 | Polyunsaturated fatty acid lipoxygenase ALOX12 (Homo sapiens) (UniProt P18054) | False |
| Nc1ccc(SCCN2C(=O)c3ccccc3C2=O)cc1 | Polyunsaturated fatty acid lipoxygenase ALOX12 (Homo sapiens) (UniProt P18054) | False |
| COc1ccc(Nc2ccccc2)cc1 | Polyunsaturated fatty acid lipoxygenase ALOX12 (Homo sapiens) (UniProt P18054) | True |
| CCN1C(=O)COc2ccc(NC(=O)c3cc(=O)c4cc(Cl)c(C)cc4o3)cc21 | Polyunsaturated fatty acid lipoxygenase ALOX12 (Homo sapiens) (UniProt P18054) | False |
| Cc1ccccc1OCCN(C)Cc1cc(=O)oc2cc(O)ccc12 | Polyunsaturated fatty acid lipoxygenase ALOX12 (Homo sapiens) (UniProt P18054) | False |
| O=C(CSc1nnc(-c2ccncc2)n1C1CCCCC1)Nc1ccccc1 | Polyunsaturated fatty acid lipoxygenase ALOX12 (Homo sapiens) (UniProt P18054) | False |
| CCOc1ccc(OCC)c(NS(=O)(=O)c2ccc3[nH]c(=O)ccc3c2)c1 | Polyunsaturated fatty acid lipoxygenase ALOX12 (Homo sapiens) (UniProt P18054) | False |
| CCOc1ccccc1NC(=O)N1CCN(Cc2nc(-c3ccc(C(=O)NC)cc3)oc2C)CC1 | Polyunsaturated fatty acid lipoxygenase ALOX12 (Homo sapiens) (UniProt P18054) | False |
| Cc1cc2ccccc2n1CC(=O)Nc1ccc(Oc2ccccc2)cc1 | Polyunsaturated fatty acid lipoxygenase ALOX12 (Homo sapiens) (UniProt P18054) | False |
| CC(C)C(=O)N1CCC2(CC1)OC(=O)N(Cc1ccccc1F)C2(C)c1ccccc1 (stereo not drawn) | Polyunsaturated fatty acid lipoxygenase ALOX12 (Homo sapiens) (UniProt P18054) | False |
| O=C(c1ccc(F)c(F)c1)N1CCC([C@@H]2CNC[C@H]2CO)CC1 | Polyunsaturated fatty acid lipoxygenase ALOX12 (Homo sapiens) (UniProt P18054) | False |
| CC1(c2ccccc2)N(Cc2ccccc2F)C(=O)OC12CCN(Cc1c[nH]c3ccccc13)CC2 (stereo not drawn) | Polyunsaturated fatty acid lipoxygenase ALOX12 (Homo sapiens) (UniProt P18054) | True |
| O=C1COc2ccc(C(=O)COC(=O)c3nn(Cc4ccccc4)c(=O)c4ccccc34)cc2N1 | Polyunsaturated fatty acid lipoxygenase ALOX12 (Homo sapiens) (UniProt P18054) | False |
| CC1CC(C)(C)NC(=S)N1CCC(=O)N1CCN(Cc2ccccc2)CC1 (stereo not drawn) | Polyunsaturated fatty acid lipoxygenase ALOX12 (Homo sapiens) (UniProt P18054) | False |
| COc1ccc(CCc2nnc(NS(=O)(=O)Cc3ccccc3)s2)cc1 | Polyunsaturated fatty acid lipoxygenase ALOX12 (Homo sapiens) (UniProt P18054) | False |
| COc1ccccc1CN(C)C(=O)NCc1ccc(S(=O)(=O)N2CCCCC2)cc1 | Polyunsaturated fatty acid lipoxygenase ALOX12 (Homo sapiens) (UniProt P18054) | False |
| COc1cccc(/C=C2\Oc3cc(OS(=O)(=O)c4ccc(C)cc4)ccc3C2=O)c1OC | Polyunsaturated fatty acid lipoxygenase ALOX12 (Homo sapiens) (UniProt P18054) | False |
| CCOC(=O)CN1C(=O)C(O)(CC(=O)c2cccnc2)c2ccccc21 (stereo not drawn) | Polyunsaturated fatty acid lipoxygenase ALOX12 (Homo sapiens) (UniProt P18054) | False |
| O=C(NC1CCS(=O)(=O)C1)c1cc2ccccc2oc1=O (stereo not drawn) | Polyunsaturated fatty acid lipoxygenase ALOX12 (Homo sapiens) (UniProt P18054) | False |
| CCCCN1C(SCC(=O)N2CCCC2)=NS(=O)(=O)c2ccccc21 | Polyunsaturated fatty acid lipoxygenase ALOX12 (Homo sapiens) (UniProt P18054) | False |
| COc1ccc(Nc2nc(-c3cccc(OC)c3OC)no2)cc1 | Polyunsaturated fatty acid lipoxygenase ALOX12 (Homo sapiens) (UniProt P18054) | False |
| COc1ccc(NC(=O)ON=C2c3ccccc3-c3ccccc32)cc1 | Polyunsaturated fatty acid lipoxygenase ALOX12 (Homo sapiens) (UniProt P18054) | False |
